# protocol text: reduction of polyQ htt aggregates in cells – imaging, exon1htt(103Q)mCFP cells, high-content imaging, primary screen (AID 483);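 note: compound exposure lasted 3 days before fixation; percent of the per-plate median nuclei count of sample wells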
# run conditions: exon1htt(103Q)mCFP cell line, aggregate imaging, at 2 µM; measured here: cell count, toxicity
experimental endpoint: nuclei count (%)
Field format: number, assumed %, no unit text.

Kindly indicate its recorded nuclei count. Item: O=C(COC(=O)CCOc1ccccc1)Nc1ccc(Cl)cn1
101

# return recorded nuclei count for entry Cn1c(=O)c2c(nc(SCC(=O)N3CCCc4ccccc43)n2C)n(C)c1=O
45.1

Determine its reported nuclei count: CC(C)COC(=O)C1[C@H]2C(=O)N(Cc3cccs3)C[C@]23C=C[C@H]1O3 (stereo not given in full)
97.4

For CCCNC(=O)C1=C(C)C(=O)OC12CCC(C)CC2 (stereo not given) , write its nuclei count.
115

Given the molecule ON=C1/C(=N\O)CC2(C/C1=N/O)OCCO2 , write its reported nuclei count.
69.5

Hello, please tell me recorded nuclei count for this one: Clc1ccc(Cl)c(-c2nn3c(COc4ccccc4)nnc3s2)c1
104

Could you please provide reported nuclei count for Cc1nc2nc(Cc3ccccc3)[nH]n2c(=O)c1Cc1ccccc1 ? Thanks!
97

Let me know recorded nuclei count for COc1cc(CO)cc(-c2cc(CO)cc(OC)c2OC)c1OC , thanks.
76.2

Note nuclei count for the molecule shown: COc1ccc(C)cc1-n1nnnc1SC/C(O)=C(\C#N)c1nc2ccccc2[nH]1
42.2

Look up and report measured nuclei count for this entry: Cc1n[nH]c(C)c1S(=O)(=O)N1CCCCCC1
99.2

Answer with the recorded nuclei count of COc1cc2c(C#N)c(N3CCN(c4ccccc4OC)CC3)nc(N)c2c(N)n1 only.
99.8

Output nuclei count of Cc1ccc(C)n1-n1c(C)nc2sc(-c3ccccc3)cc2c1=O
85.3
